assay: Unbound plasma and brain levels of lasmiditan in rats from dural PPE studies; format: in vivo, Sprague-Dawley rats; conditions: male, Sprague-Dawley, brain; rat, 10 mg/kg po, 24 hrs post-dose; read-out: Unbound Brain Cone (mean ± SD; n = 4)
Endpoint name: concentration at 24 h (nM)
Report the value in nM with no unit label.

concentration at 24 h recorded for this compound, CN1CCC(C(=O)c2cccc(NC(=O)c3c(F)cc(F)cc3F)n2)CC1 , is 2.1

###

Experiment: Unbound plasma and brain levels of lasmiditan in rats from dural PPE studies
Assay type: in vivo, Sprague-Dawley rats
Details: male, Sprague-Dawley, plasma; rat, 0.1 mg/kg po, 1 hr post-dose; read-out: Unbound Plasma Cone (mean ± SD; n = 4)
Method: Lasmiditan-hemisuccinate is dissolved in sterile water. All doses of lasmiditan are reported as free base equivalent doses, accounting for the weight of the salt. […] The brain and plasma samples are frozen at −80° C. until thawed for compound quantification. […] A fluorescence microscope (Zeiss) equipped with a grating monochromator and a spectrophotometer is used to quantify the amount of FITC-BSA dye in each dural sample. […]
Endpoint name: concentration at 1 h

GET /value?item= CN1CCC(C(=O)c2cccc(NC(=O)c3c(F)cc(F)cc3F)n2)CC1 &field=concentration at 1 h returns 6 nM
